system: BT-549 breast; experiment: NCI tumour cell line growth inhibition, 48 h
1 (yes) means recorded TGI is 30 µM or above; 0 (no) means it is below 30 µM.

Known results for compounds:
• O=c1cnn(C2OC(CO)C(O)C2O)c(=S)[nH]1 (stereo not given) = 1 (yes)
• COc1cc(C(=O)c2c(-c3ccccc3)oc3c(OC)cccc23)cc(OC)c1OC = 0 (no)
• CC1CCCC2(CC[N+](C)(CCC[N+](C)(C)C)CC2)C1 (stereo not given) = 1 (yes)
• Cc1ccc(OCC2OC(n3cnc4nc(N)nc(Cl)c43)CC2Oc2ccc(C)cc2)cc1 (stereo not given) = 1 (yes)
• Nc1ncnc2c1N=C(c1ccc3c(c1)OCO3)CC(c1ccc([N+](=O)[O-])cc1)N2 (stereo not given) = 1 (yes)
• CN(C)CCN1C(=O)c2c(c3c4ccccc4n4c3c3c2c2ccccc2n3C2CC(O)C(O)C4(C)O2)C1=O (stereo not given) = 0 (no)
• Cc1cccc(Nc2nn3c(=O)c4c5c(sc4nc3s2)CCCC5)c1 = 1 (yes)
• C[C@H](NC(=O)C(Cc1ccccc1)(Cc1ccc(O)cn1)NC(=O)c1ccccc1)c1ccccc1 (stereo not given in full) = 1 (yes)

INPUT: Answer whether TGI of C[N+](C)(C)c1ccc(C(N)C(=O)O)cc1 (stereo not given) is greater than or equal to 30 µM.
OUTPUT: 1 (yes)

INPUT: Answer whether TGI of NC(=O)NNc1nc(-c2ccccc2)cs1 is greater than or equal to 30 µM.
OUTPUT: 1 (yes)

INPUT: Answer whether TGI of CN1CCN(C(=O)C(C)(C)c2ccc(C(=O)Nc3cn4cc(-c5ccncc5)ccc4n3)cc2)CC1 is greater than or equal to 30 µM.
OUTPUT: 0 (no)

INPUT: Answer whether TGI of O=C(NCCCCCCCCCCCCNC(=O)Nc1cccc2ccccc12)Nc1cccc2ccccc12 is greater than or equal to 30 µM.
OUTPUT: 1 (yes)

INPUT: Answer whether TGI of CCOP(=O)(/C=C\n1cc(C)c(=O)[nH]c1=O)OCC is greater than or equal to 30 µM.
OUTPUT: 1 (yes)

INPUT: Answer whether TGI of [Cl][Sn]([c]1ccccc1)([c]1ccccc1)[c]1ccccc1 is greater than or equal to 30 µM.
OUTPUT: 0 (no)

###

system: SK-MEL-28 melanoma; assay: NCI tumour cell line growth inhibition, 48 h
observable: TGI

Reference set (6 entries):
- OC(CCNC12CC3CC(CC(C3)C1)C2)c1ccccc1 (centres undefined): > 100 µM
- Cc1ccccc1OCC(O)CN1CCN(c2ccc(Cl)cc2)CC1 (centres undefined): 33.5 µM
- CC(C)(C)C(=O)OCC1C(=O)OCC1C(=O)N1Cc2cc3ccccc3nc2C1 (centres undefined): 10.8 µM
- Cc1ccc(S(=O)(=O)n2c3ccc(Br)cc3c3nc4ccccc4nc32)cc1: > 100 µM
- OCC(O)C(O)C(O)C(O)c1nc2ccc(Cl)cc2[nH]1 (centres undefined): > 100 µM
- CCCCCCCCCCCCCCCC(=O)OCC1OC(n2cc(F)c(=O)[nH]c2=O)C(N)C(O)C1O (centres undefined): 31.1 µM

INPUT: Fill in the recorded TGI for this compound, with SK-MEL-28 melanoma as test system: COc1ccc2c(c1)C(=O)c1ccc(OC)cc1C2=S
OUTPUT: > 100 µM

INPUT: Fill in the recorded TGI for this compound, with SK-MEL-28 melanoma as test system: Cc1nc(Nc2ccccc2)sc1C(=O)CC(=O)C(=O)Nc1c(C(C)C)cccc1C(C)C
OUTPUT: > 100 µM

INPUT: Fill in the recorded TGI for this compound, with SK-MEL-28 melanoma as test system: CC(NC(=O)C(NC(=O)CNC(=O)OC(C)(C)C)C(C)C)C(=O)Oc1c(Cl)c(Cl)c(Cl)c(Cl)c1Cl (centres undefined)
OUTPUT: 71.8 µM

INPUT: Fill in the recorded TGI for this compound, with SK-MEL-28 melanoma as test system: COC(OC)[C@@H]1OC[C@H](n2cnc3c(N)ncnc32)[C@H]1O
OUTPUT: > 100 µM

INPUT: Fill in the recorded TGI for this compound, with SK-MEL-28 melanoma as test system: COc1ccc(C/C(C)=C(/c2ccc(OCCN3CCCCC3)cc2)c2ccc(OC(=O)NCc3ccccc3)cc2)cc1
OUTPUT: 0.818 µM

INPUT: Fill in the recorded TGI for this compound, with SK-MEL-28 melanoma as test system: CCCCOC(=O)C(NC(C(=O)OCCCC)c1cc(C(C)(C)C)c(O)c(C(C)(C)C)c1)c1cc(C(C)(C)C)c(O)c(C(C)(C)C)c1 (centres undefined)
OUTPUT: > 100 µM

INPUT: Fill in the recorded TGI for this compound, with SK-MEL-28 melanoma as test system: CC1=C(C(=O)Nc2ccc3n[nH]c(C)c3c2)C(c2ccc(C(F)(F)F)cc2)CC(=O)N1 (centres undefined)
OUTPUT: > 25 µM

INPUT: Fill in the recorded TGI for this compound, with SK-MEL-28 melanoma as test system: CC(=O)Oc1cc2c(cc1OC(C)=O)OCC(c1ccc(C)cc1)C2 (centres undefined)
OUTPUT: 39.3 µM

###

system: SNB-19 CNS; assay: NCI tumour cell line growth inhibition, 48 h
observable: TGI

Reference set (3 entries):
• C=C1CC2OC(=O)C(=C)C2C(O)C2C(=C)CCC12 (stereo unspecified) = 30.8 µM
• COc1c(O)c2c3c(cc(C)cc3c1C(C)C)OC2 = > 100 µM
• O=C1CCCCC1S(=O)(=O)c1ccccc1 (stereo unspecified) = > 100 µM

INPUT: Fill in the recorded TGI for this compound, with SNB-19 CNS as test system: O=c1cnn(C2OC(CO)C(O)C2O)c(=S)[nH]1 (stereo unspecified)
OUTPUT: > 100 µM

INPUT: Fill in the recorded TGI for this compound, with SNB-19 CNS as test system: CCCCCCCC/C=C\CCCCCCC/C=C1\C[C@](/C=C/C(=O)OC)(CO)OC1=O
OUTPUT: 16 µM

INPUT: Fill in the recorded TGI for this compound, with SNB-19 CNS as test system: COc1ccc2c(c1)c(CC(=O)[Se]C)c(C)n2C(=O)c1ccc(Cl)cc1
OUTPUT: > 0.752 µM

###

test system: NCI-H522 lung; test: NCI tumour cell line growth inhibition, 48 h
TGI reference

Reference set (8 entries):
* O=C1NC(=O)C(C(CC(=O)c2ccc([N+](=O)[O-])cc2)c2ccccc2)C(=O)N1 (stereo not drawn) | > 100 µM
* CN(C(=O)C12C3C4C1C1C2C3C41C(N)=O)C(C)(C)C (stereo not drawn) | > 100 µM
* CC(C)=NN/C(=N\S(=O)(=O)c1ccc(Oc2cccc(Cl)c2C#N)cc1)Nc1ccc(Cl)cc1 | > 100 µM
* COc1ccc(N2C(=O)CC(=O)N(C(=O)COc3ccc(OCC(=O)N4C(=O)CC(=O)N(c5ccc(OC)cc5)C4=S)cc3)C2=S)cc1 | > 100 µM
* O=C(c1ccc(Cl)cc1Cl)C1[C@H]2C(=O)N(c3ccc(Cc4ccc(N5C(=O)[C@@H]6ON(c7ccccc7)C(C(=O)c7ccc(Cl)cc7Cl)[C@@H]6C5=O)cc4)cc3)C(=O)[C@H]2ON1c1ccccc1 (stereo partly drawn) | > 50 µM
* Cc1ccc([S@](=O)c2occc2C=O)cc1 | 31.6 µM
* Cc1cccc(/C=N/NC(=S)N2CCCC2)n1 | > 100 µM
* O=C1C(c2ccccc2)=C(O)c2cccc3cccc1c23 | > 100 µM

INPUT: Fill in the blank: the reported TGI of Cc1ccc(C(N)=O)cc1N=NN(C)C is ____.
OUTPUT: > 100 µM

INPUT: Fill in the blank: the reported TGI of Cc1ccc(/C(O)=C/c2nc3ccccc3sc2=O)c(C)c1 is ____.
OUTPUT: 62.1 µM

INPUT: Fill in the blank: the reported TGI of Cc1ccc2c(c1)-c1c3c(nn1-c1ccccc1)-c1ccccc1SC3O2 (stereo not drawn) is ____.
OUTPUT: > 100 µM

INPUT: Fill in the blank: the reported TGI of COc1cccc(CCN2CCN(CCCc3ccccc3)CC2)c1 is ____.
OUTPUT: 67.9 µM

INPUT: Fill in the blank: the reported TGI of N/N=C(/C(=O)Nc1cccc(Cl)c1)C(C(=O)c1ccc(O)cc1O)C1OC(=O)c2ccccc21 (stereo not drawn) is ____.
OUTPUT: > 100 µM

INPUT: Fill in the blank: the reported TGI of COc1ccc2c3c1OC1C(=O)C=CC4(CC2)N(C)CCC314 (stereo not drawn) is ____.
OUTPUT: 33 µM

###

tested on: OVCAR-5 ovarian; test: NCI tumour cell line growth inhibition, 48 h
TGI reference

- CCCC(=O)NC(Nc1ccc(S(=O)(=O)Nc2cc(C)on2)cc1)(C(=O)OCC)C(F)(F)F (configuration not stated): > 100 µM
- C[C@H](NC(=O)C(Cc1ccccc1)(Cc1ccc(O)cn1)NC(=O)c1ccccc1)c1ccccc1 (some centres not stated): 37.4 µM
- COc1c(O)c(C=O)c2c(O)c(-c3c(C)cc4c(C(C)C)c(OC)c(O)c(C=O)c4c3O)c(C)cc2c1C(C)C: 20.7 µM
- Cc1ccc(OCC2OC(n3cnc4nc(N)nc(Cl)c43)CC2Oc2ccc(C)cc2)cc1 (configuration not stated): 39.7 µM
- C=C1C(O)C2C(=C(CC)C13CC3)C(=O)C(C)(C)C2OC (configuration not stated): > 100 µM

INPUT: Fill in the blank: the reported TGI of CSCSSC is ____.
OUTPUT: > 100 µM

INPUT: Fill in the blank: the reported TGI of COc1cc2c[n+](C)c3c4cc(OC)c(OC(C)C)cc4ccc3c2cc1OC is ____.
OUTPUT: > 100 µM

INPUT: Fill in the blank: the reported TGI of CCOC(=O)c1nc2ccc(C(F)(F)F)cc2nc1Oc1cc(OC)c(OC)c(OC)c1 is ____.
OUTPUT: > 100 µM
